# method summary: chemical genetic growth profiling, strain panel (AID 1159580);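 also: tested at 20 µM; growth read once vehicle control cultures reached saturation at 30 °C; 1 = growth at the plate median or of vehicle wells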
# measurement context: S. cerevisiae deletion strains, growth OD, locus YMR231W, strain pep5, stronger effect = lower value
The campaign covered roughly 5,500 compounds. About 2,000 (36%) were called active. Not shown: some 18% with an inconclusive outcome. This is one part of the list.
Label key: yes means normalized growth under 1; no means normalized growth of 1 or more.

compound: CCCCCCCCCCCCCCC(C(=O)O)C(O)(CC(=O)OC)C(=O)O (stereo unspecified)
group: yes
--
compound: O=c1oc2cc(O)ccc2s1
group: no
--
compound: CC(C)=CCCC1(C)C=Cc2c(O)c3c(c(CC=C(C)C)c2O1)OC12C(=CCCC1C(C)(C)O[C@@]2(C/C=C(\C)C(=O)O)C(=O)O)C3=O (stereo partly specified)
group: yes
--
compound: N#CC(O[C@@H]1O[C@H](CO[C@@H]2O[C@H](CO)[C@@H](O)[C@H](O)[C@H]2O)[C@@H](O)[C@H](O)[C@H]1O)c1ccccc1 (stereo partly specified)
group: yes
--
compound: O=c1[nH]cc(F)c(=O)[nH]1
group: yes

Is normalized growth of Cc1cc(-n2c(=O)[nH]c(=O)n(C)c2=O)ccc1Oc1ccc(SC(F)(F)F)cc1 strictly below 1? yes

Is normalized growth of CC(C)=CCCC1(C)C=Cc2c(O)c3c(c(CC=C(C)C)c2O1)OC12C(=CC4CC1C(C)(C)OC2(C/C=C(/C)C(=O)O)C4=O)C3=O (stereo unspecified) strictly below 1? yes

Is normalized growth of Cc1ccc(-c2cc(C(F)(F)F)nn2-c2ccc(S(N)(=O)=O)cc2)cc1 strictly below 1? no

Is normalized growth of CCCCCCCCCCCC[C@H](C(=O)O)[C@@H](C)C(=O)O strictly below 1? yes

====

# method summary: chemical genetic growth profiling, strain panel (AID 1159580)
# measurement context: S. cerevisiae deletion strains, growth OD, locus YLL026W, stronger effect = lower value
About 2,000 (36%) of roughly 5,500 compounds were called active. Another 18% or so got no clear call; they are omitted. The list shows a part of the results.
The entries below are paired with their reported normalized growth.

Answered examples (7):
compound: COc1ccc2c(c1)c(CC(=O)OCC(=O)O)c(C)n2C(=O)c1ccc(Cl)cc1
normalized growth: 0.997 (inactive)

compound: COc1ccc2c(c1)c(CC(=O)O)c(C)n2C(=O)c1ccc(Cl)cc1
normalized growth: 0.988 (inactive)

compound: CCCCCCCCCCCC[C@H](C(=O)O)[C@@H](C)C(=O)O
normalized growth: 0.987 (inactive)

compound: CC(CC(=O)C1OC1(C)C)C1C(=O)CC2(C)C3=CCC4C(C)(C)C(OC5OCC(O)C(O)C5O)CCC45CC35C(O)CC12C (stereo not drawn)
normalized growth: 1.02 (inactive)

compound: CC1(C)CC[C@@]2(C(=O)O)C(C1)C1=CCC3[C@@]4(C)CC[C@H](O)C(C)(C)C4CC[C@@]3(C)[C@]1(C)C[C@@H]2O (stereo partly drawn)
normalized growth: 1.01 (inactive)

compound: C/C=C(/C)C(=O)O[C@@H]1[C@H](OC(C)=O)[C@@]2(CO)C(CC1(C)C)C1=CCC3[C@@]4(C)CC[C@H](O[C@@H]5O[C@H](C(=O)O)[C@@H](O[C@@H]6O[C@H](CO)[C@@H](O)[C@H](O)[C@H]6O)[C@H](O)[C@H]5O[C@@H]5O[C@H](CO)[C@@H](O)[C@H](O)[C@H]5O)[C@](C)(CO)C4CC[C@@]3(C)[C@]1(C)C[C@H]2O (stereo partly drawn)
normalized growth: 0.988 (inactive)

compound: C[C@H]1[C@H](C)CC[C@]2(CO)CC[C@]3(C)C(=CCC4[C@@]5(C)CC[C@H](O)C(C)(C)C5CC[C@]43C)[C@H]12 (stereo partly drawn)
normalized growth: 1.01 (inactive)

Moving on to the next compound.
O=c1ccc2ccc(O)cc2o1 yielded normalized growth of 1 (inactive)

====

# method summary: chemical genetic growth profiling, strain panel (AID 1159580);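 also: tested at 20 µM; growth read once vehicle control cultures reached saturation at 30 °C; 1 = growth at the plate median or of vehicle wells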
# measurement context: S. cerevisiae deletion strains, growth OD, locus YPL256C, strain CLN2
Among all 5,500 compounds or so, about 2,000 (36%) were called active. Not shown: some 18% with an inconclusive outcome. No stated cut-off is given here; in the data, active means normalized growth mostly below about 0.91 (no sharp cut-off); inconclusive means no clear call, values can overlap the other calls; inactive means mostly above about 0.92. The list shows a part of the results.
Hi there, use one of these labels in your reply, thanks! yes = active, no = inactive

Example results:
compound: CC(=O)O[C@H]1CC[C@@]2(C)C(CC[C@]3(C)C2CC=C2C4CC(C)(C)CC[C@]4(C)CC[C@]23C)C1(C)C (some centres not stated)
group: no
//
compound: C[C@@H]1CC[C@H]2[C@@H](C)C(O)O[C@@H]3O[C@@]4(C)CC[C@@H]1[C@]32OO4 (some centres not stated)
group: yes
//
compound: O=S(=O)(c1ccc(Cl)cc1)N(Cc1cccnc1)Cc1ccc(Cl)cc1Cl
group: yes

Could you kindly confirm the outcome this assay logged for O=C(c1cccs1)N(Cc1cccnc1)Cc1ccc(Cl)cc1Cl ? yes

Could you kindly confirm the outcome this assay logged for O=C(c1ccc(Cl)cc1)N(Cc1ccccc1)Cc1cccnc1 ? no

Could you kindly confirm the outcome this assay logged for CC(C)(C)C(=O)N(Cc1cccnc1)Cc1ccc(Cl)cc1Cl ? no

Could you kindly confirm the outcome this assay logged for C[C@@H]1CC[C@H]2[C@@H](C)C(=O)O[C@@H]3O[C@@]4(C)CC[C@@H]1[C@]32OO4 ? yes

====

The entries below are paired with their reported normalized growth.
# method summary: chemical genetic growth profiling, strain panel (AID 1159580);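 also: tested at 20 µM; growth read once vehicle control cultures reached saturation at 30 °C; 1 = growth at the plate median or of vehicle wells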
# measurement context: S. cerevisiae deletion strains, growth OD, locus YEL037C, strain rad23, stronger effect = lower value
Among all 5,500 compounds or so, about 2,000 (36%) were called active. Inconclusive results (about 18%) are left out. This is one part of the list.
Write the value as a bare number.

Answered examples (3):
molecule: C[C@@H]1OC(O[C@H]2C(O[C@H]3CC[C@@]4(C)C(CC[C@]5(C)C4CC=C4C6CC(C)(C)CC[C@]6(C(=O)O)CC[C@]45C)[C@]3(C)CO)OC[C@H](O)[C@@H]2O)[C@H](O)[C@H](O)[C@H]1O (stereo partly drawn)
normalized growth: 0.0576
--
molecule: NC12CC3CC(CC(C3)C1)C2
normalized growth: 0.995
--
molecule: CC1(C)CC[C@]2(C(=O)O)CC[C@]3(C)C(=CCC4[C@@]5(C)CC[C@@H](O)C(C)(C)C5CC[C@]43C)C2C1 (stereo partly drawn)
normalized growth: 1.01

Nc1ccc(S(=O)(=O)Nc2cnc3ccccc3n2)cc1 yielded normalized growth of 1.01

CC(C)CCCC1(C)C=Cc2c(O)c3c(c(CCC(C)C)c2O1)OC12C(CC4CC1C(C)(C)OC2(CCC(C)C(=O)O)C4O)C3=O (stereo not drawn) yielded normalized growth of 1.03

CC1=NS(=O)(=O)c2cc(Cl)ccc2N1 yielded normalized growth of 0.944

CC(=O)O[C@H]1CC[C@@]2(C)C(CC[C@]3(C)C2CC=C2C4CC(C)(C)CC[C@]4(C)CC[C@]23C)C1(C)C (stereo partly drawn) yielded normalized growth of 0.978

CC1(C)CC(O)C2(C)CCC3(C)C(=CCC4C5(C)CCC(O)C(C)(CO)C5CCC43C)C2C1 (stereo not drawn) yielded normalized growth of 1.02

====

# method summary: chemical genetic growth profiling, strain panel (AID 1159580);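 also: tested at 20 µM; growth read once vehicle control cultures reached saturation at 30 °C; 1 = growth at the plate median or of vehicle wells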
# measurement context: S. cerevisiae deletion strains, growth OD, locus YMR205C, strain PFK2, stronger effect = lower value
Screen size: about 5,500 compounds; about 2,000 (36%) were called active. Inconclusive results (about 18%) are left out. The list shows a part of the results.
The entries below are paired with their reported normalized growth.

Answered examples (2):
compound: O=C1c2c(O)cccc2Cc2cccc(O)c21
normalized growth: 1.03 (inactive)
//
compound: CCOP(=S)(OCC)Oc1nc(Cl)c(Cl)cc1Cl
normalized growth: 0.842 (active)

CCC(C)C(=O)O[C@H]1[C@H](O)C2C(CN3CC(C)CCC3[C@@]2(C)O)C2C[C@]34O[C@]5(O)C(OC(=O)C(C)(O)CC)CC[C@@]3(C)C5C(OC(C)=O)[C@@H](OC(C)=O)C4[C@@]21O (stereo partly drawn) yielded normalized growth of 1.03 (inactive)

OC(CCN1CCCCC1)(c1ccccc1)C1CC2C=CC1C2 (stereo not drawn) yielded normalized growth of 1.01 (inactive)

C/C=C(/C)C(=O)OC1CCC2(C)C3CCC4C5(O)CC(O)C6(O)C(CN7CC(C)CCC7C6(C)O)C5(O)CC42OC13O (stereo not drawn) yielded normalized growth of 0.986 (inactive)

Cc1ccc(N=CN(C)C=Nc2ccc(C)cc2C)c(C)c1 yielded normalized growth of 0.998 (inactive)

COc1cc(C(=O)O[C@H]2CC[C@@]3(C)[C@@H]4CC[C@H]5[C@]6(O)C[C@H](O)[C@@]7(O)[C@@H](CN8C[C@@H](C)CC[C@H]8[C@@]7(C)O)[C@]6(O)C[C@@]53O[C@]24O)cc(OC)c1OC yielded normalized growth of 1 (inactive)

CNCc1ccccc1 yielded normalized growth of 1.03 (inactive)
